TARGET: human cathepsin-B (Cat-B) (Homo sapiens)
Construct: purchased Calbiochem, Darmstadt, Germany; host or cells: recombinant
PROCEDURE SUMMARY: Cathepsin-B inhibition screening
Assay type: biochemical
STUDY CONDITIONS: over 10 min
PROPERTY NAME: Cat-B Inhibition (%) at 10 µM
Answers are plain numbers, in %.

Each compound below has a reported value. Please supply its Cat-B Inhibition (%) at 10 µM.
1. CCP(CC)CC.[Au+].[Cl-]
2. CCP(CC)CC.[Br][Au]

Data returned:
1. 29
2. 31

====

TARGET: trypsin-like (T-L) activity of human 20S proteasome (Homo sapiens, UniProt Q99436)
Construct: 20S proteasome, isolated and purified from human erythrocytes
PROCEDURE SUMMARY: Inhibition of trypsin-like activity of 20S proteasome (Boc-Leu-Arg-Arg-AMC)
STUDY CONDITIONS: 10 min, no pre-incubation, 30 °C
PROPERTY NAME: pIC50
One number for each entry, as −log10 of the molar value.

Field: example entries. Status: answers known.
CCP(CC)CC.[Br][Au]	5.90
CC[PH](CC)(CC)[Ag][Cl]	5.66
CC[PH](CC)(CC)[Ag][Br]	5.58

Each molecule below has a reported value. Please supply its pIC50.
1. CC[P](CC)(CC)[Au][I]
2. CCP(CC)CC.[Au+].[Cl-]
3. CC[PH](CC)(CC)[Ag][I]

Data returned:
[5.24, 5.90, 5.64]

Numbers sourced from paper PMC7582876.
